Hey, just so you know, these numbers are from patent US20220024905A1.

# experiment notes: Pharmacokinetics of Crystal Form A and Crystal Form B capsules in beagle dogs
# Format: in vivo
# assay setup: both sexes, beagle, dog, plasma, po, 5 mg/kg, beagle dogs, PO 5 mg/kg, capsule, x ± s, n = 6; read-out: AUC0-inf
parameter: AUC0-inf
Don't forget the unit after the value.

Given CN1CCc2ccc(OCCCN3CCC(c4noc5cc(F)ccc45)CC3)cc2C1=O [Crystal Form A] , state its recorded AUC0-inf. 2990 ng·h/mL

###

# experiment notes: Pharmacokinetics of Crystal Form A and Crystal Form B capsules in beagle dogs
# Assay type: in vivo
# assay setup: both sexes, beagle, dog, plasma, po, 5 mg/kg, beagle dogs, PO 5 mg/kg, capsule, n = 6; read-out: Tmax
parameter: Tmax (h)
Numbers only, in h.

Given CN1CCc2ccc(OCCCN3CCC(c4noc5cc(F)ccc45)CC3)cc2C1=O [Crystal Form A] , state its recorded Tmax. 2.6

###

# experiment notes: Pharmacokinetics of Crystal Form A and Crystal Form B capsules in beagle dogs
# Type: in vivo
# assay setup: both sexes, beagle, dog, plasma, po, 5 mg/kg, beagle dogs, PO 5 mg/kg, capsule, x ± s, n = 6
# Method: There were 12 beagle dogs for the experiment, half male and half female, weighing 11.0-14.1 kg, provided by the Teaching and Experimental Ground of Agricultural College of Shanghai Jiao Tong University. […] The animals were weighed on the day of administration, and the dosage was determined according to their body weight. […] The experimental data was expressed as the mean (Mean)±standard deviation (S.D.). […]
parameter: AUC(0-t) (ng·h/mL)
Give bare numbers, in ng·h/mL.

Given CN1CCc2ccc(OCCCN3CCC(c4noc5cc(F)ccc45)CC3)cc2C1=O [Crystal Form A] , state its recorded AUC(0-t). 2840

###

# experiment notes: Pharmacokinetics of Crystal Form A and Crystal Form B capsules in beagle dogs
# Assay type: in vivo
# assay setup: both sexes, beagle, dog, plasma, po, 5 mg/kg; read-out: relative bioavailability (F)
parameter: bioavailability (%)
Numbers only, in %.

Given CN1CCc2ccc(OCCCN3CCC(c4noc5cc(F)ccc45)CC3)cc2C1=O [Crystal Form A] , state its recorded bioavailability. 137
